These data points were gathered from patent US20150038419A1.

Biological target: T1, elastase (human; for SPR purified from human sputum) (human, UniProt P08246 30-267)
T1 construct: mature
T1 sequence (looked up): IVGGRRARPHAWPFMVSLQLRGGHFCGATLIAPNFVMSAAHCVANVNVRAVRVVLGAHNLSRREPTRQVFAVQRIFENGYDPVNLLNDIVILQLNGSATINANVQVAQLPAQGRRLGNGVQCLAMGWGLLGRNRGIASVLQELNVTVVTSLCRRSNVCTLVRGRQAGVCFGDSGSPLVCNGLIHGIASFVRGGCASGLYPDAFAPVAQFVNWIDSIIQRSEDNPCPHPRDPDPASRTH
Assay: calculated by Cheng-Prusoff from the enzyme-inhibition IC50 and the substrate Km (250 uM substrate)
observable: Ki

I have this binder here, recombinant Simukunin (rSV-66), Simulium vittatum SV-66 without signal peptide, His-tagged, expressed in E. coli (other, also called rSimukunin; WT rSimukunin; not shown: His tag(s) from vector pET-30 Ek/LIC ('C-terminal double His tags')) QENVCNLPVDEGVCRALFKRFYYEPATDSCKEFYYGGCEGNGNRFKSKKECILKCQKNKQLIKTRKRKPKKTTKPPIPIISLD , and I need its recorded Ki.
~0.65 nM
